test: Cmax in plasma in infants/toddlers measured on day 1 post dose
experimentalContext: human
measurementType: Cmax (ng/mL)

CC[C@H](C)C[C@H](C)CCCCCCCCC(=O)N[C@H]1C[C@@H](O)[C@@H](NCCN)NC(=O)[C@@H]2[C@@H](O)CCN2C(=O)[C@H]([C@H](O)CCN)NC(=O)[C@H]([C@H](O)[C@@H](O)c2ccc(O)cc2)NC(=O)[C@@H]2C[C@@H](O)CN2C(=O)[C@H]([C@@H](C)O)NC1=O = 21500

----------
test: AUC (0 to 24 hrs) in 17 […] old infants/toddlers measured on day 1 post dose
Format: ADME, organism-based
Parameters: time < 24 hr
experimentalContext: human, plasma
measurementType: AUC(0-t) at 24 h

CC[C@H](C)C[C@H](C)CCCCCCCCC(=O)N[C@H]1C[C@@H](O)[C@@H](NCCN)NC(=O)[C@@H]2[C@@H](O)CCN2C(=O)[C@H]([C@H](O)CCN)NC(=O)[C@H]([C@H](O)[C@@H](O)c2ccc(O)cc2)NC(=O)[C@@H]2C[C@@H](O)CN2C(=O)[C@H]([C@@H](C)O)NC1=O [CASPOFUNGIN] = 102 µg·h/mL
